target: hSCN3A (Homo sapiens, UniProt Q9NY46); assay: SCN3A inhibitory activity in HEK cells stably expressing hSCN3A (whole-cell patch clamp / radiotracer efflux HTS); conditions: HEK cells stably transfected with hSCN3A
Sequence (Q9NY46 whole entry): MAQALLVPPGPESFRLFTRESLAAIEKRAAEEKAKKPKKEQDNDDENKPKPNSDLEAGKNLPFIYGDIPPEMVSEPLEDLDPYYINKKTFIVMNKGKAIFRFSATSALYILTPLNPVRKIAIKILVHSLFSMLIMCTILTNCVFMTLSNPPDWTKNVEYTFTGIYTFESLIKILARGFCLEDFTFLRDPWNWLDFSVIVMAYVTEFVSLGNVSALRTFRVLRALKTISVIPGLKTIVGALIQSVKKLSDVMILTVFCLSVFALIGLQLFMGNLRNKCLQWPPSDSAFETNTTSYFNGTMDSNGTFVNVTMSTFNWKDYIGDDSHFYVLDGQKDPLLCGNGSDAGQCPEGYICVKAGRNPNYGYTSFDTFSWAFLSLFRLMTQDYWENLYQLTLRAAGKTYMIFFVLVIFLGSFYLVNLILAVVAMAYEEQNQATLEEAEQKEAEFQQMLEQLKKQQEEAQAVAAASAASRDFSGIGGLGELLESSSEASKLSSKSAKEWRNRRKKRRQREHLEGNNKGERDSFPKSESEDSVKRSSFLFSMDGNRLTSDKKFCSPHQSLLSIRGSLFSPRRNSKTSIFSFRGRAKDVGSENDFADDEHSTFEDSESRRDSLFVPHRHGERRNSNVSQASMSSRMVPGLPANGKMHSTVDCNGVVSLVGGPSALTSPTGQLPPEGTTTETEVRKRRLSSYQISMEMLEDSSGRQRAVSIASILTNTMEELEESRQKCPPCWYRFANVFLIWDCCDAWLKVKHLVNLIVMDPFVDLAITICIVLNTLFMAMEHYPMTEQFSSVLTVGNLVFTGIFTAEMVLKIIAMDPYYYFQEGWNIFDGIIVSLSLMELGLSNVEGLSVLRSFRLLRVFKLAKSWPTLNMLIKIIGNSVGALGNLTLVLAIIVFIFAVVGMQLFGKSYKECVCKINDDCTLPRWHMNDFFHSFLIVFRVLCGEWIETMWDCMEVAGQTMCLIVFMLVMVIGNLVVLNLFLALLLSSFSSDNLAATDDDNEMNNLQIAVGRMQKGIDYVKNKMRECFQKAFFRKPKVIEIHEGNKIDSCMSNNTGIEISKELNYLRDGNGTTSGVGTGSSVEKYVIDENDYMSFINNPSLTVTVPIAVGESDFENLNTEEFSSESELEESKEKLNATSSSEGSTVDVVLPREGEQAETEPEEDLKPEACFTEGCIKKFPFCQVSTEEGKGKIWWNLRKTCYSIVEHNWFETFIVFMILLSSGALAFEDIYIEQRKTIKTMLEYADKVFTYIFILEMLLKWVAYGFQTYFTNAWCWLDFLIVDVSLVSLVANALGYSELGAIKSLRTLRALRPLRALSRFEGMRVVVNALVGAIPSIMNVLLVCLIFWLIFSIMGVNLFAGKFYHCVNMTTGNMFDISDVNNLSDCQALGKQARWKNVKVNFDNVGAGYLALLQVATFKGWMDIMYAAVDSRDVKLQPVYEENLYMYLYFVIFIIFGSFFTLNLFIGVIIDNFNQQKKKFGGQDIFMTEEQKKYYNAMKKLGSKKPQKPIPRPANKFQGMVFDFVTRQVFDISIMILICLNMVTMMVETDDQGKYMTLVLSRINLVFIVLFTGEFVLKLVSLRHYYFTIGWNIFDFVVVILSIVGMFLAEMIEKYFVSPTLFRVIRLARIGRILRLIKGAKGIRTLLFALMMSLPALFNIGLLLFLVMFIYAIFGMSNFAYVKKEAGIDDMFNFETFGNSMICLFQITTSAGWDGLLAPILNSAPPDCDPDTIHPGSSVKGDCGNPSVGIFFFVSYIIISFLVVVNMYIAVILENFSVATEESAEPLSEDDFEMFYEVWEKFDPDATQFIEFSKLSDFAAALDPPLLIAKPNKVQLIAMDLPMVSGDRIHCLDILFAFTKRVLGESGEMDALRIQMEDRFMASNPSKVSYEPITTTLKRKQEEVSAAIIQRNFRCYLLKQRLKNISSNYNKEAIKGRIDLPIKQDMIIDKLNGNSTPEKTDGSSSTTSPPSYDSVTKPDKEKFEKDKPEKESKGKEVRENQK
Property: IC50; scope: individual compounds

Study these solved cases before continuing.
- Cc1nc(-c2ccc(S(=O)(=O)Nc3nccs3)cc2)[nH]c1-c1ccccc1: 500 to 1000 nM
- O=S(=O)(Nc1nccs1)c1ccc(-c2nc(CCc3cc(Cl)cc(Cl)c3)c[nH]2)cc1: < 100 nM

Here is another compound to look at.
Which measured IC50 value corresponds to O=S(=O)(Nc1nccs1)c1ccc(-c2nnc(Cc3cccc(Cl)c3)[nH]2)cc1 ?
100 to 500 nM
